Where these numbers come from: patent US20250034159A1

Listed below: pIC50 values for each entry.
molecular target: recombinant human EGFR exon 19 deletion/C797S double mutant protein (Homo sapiens (Human), UniProt P00533, C797S/DEL746-750); experiment: Biological Activity Assay C: biochemical assay against EGFR exon 19 deletion/C797S protein (EGFR d19/CS)
Sequence (P00533 other isoform, or with tags, fused parts or gaps C797S/del 1-668/del 746-750 limits assumed): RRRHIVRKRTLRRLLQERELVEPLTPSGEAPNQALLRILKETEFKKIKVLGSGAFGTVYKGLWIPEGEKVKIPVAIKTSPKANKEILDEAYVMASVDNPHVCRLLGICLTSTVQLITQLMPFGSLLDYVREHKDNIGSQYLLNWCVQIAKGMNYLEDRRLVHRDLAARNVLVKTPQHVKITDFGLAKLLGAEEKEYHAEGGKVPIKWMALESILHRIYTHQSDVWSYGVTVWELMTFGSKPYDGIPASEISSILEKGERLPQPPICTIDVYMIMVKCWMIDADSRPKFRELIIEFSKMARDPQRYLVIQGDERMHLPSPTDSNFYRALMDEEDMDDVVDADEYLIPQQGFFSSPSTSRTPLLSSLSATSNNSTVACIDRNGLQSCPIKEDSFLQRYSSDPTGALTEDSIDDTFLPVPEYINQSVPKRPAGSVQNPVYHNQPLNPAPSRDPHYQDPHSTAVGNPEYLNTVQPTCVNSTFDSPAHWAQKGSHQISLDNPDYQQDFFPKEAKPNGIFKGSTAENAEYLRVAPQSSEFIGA
Units for pIC50: none; it is -log10 of a concentration expressed in mol/L.

| Compound | Quantity Name | Reported Measurement |
| --- | --- | --- |
| O=S1(=O)CCC(n2cc(-c3ncnc4[nH]c(-c5ccccc5)nc34)c(-c3ccc(F)cc3)n2)C1 (centres unmarked) | pIC50 | 10.22 |
| CC(C)(O)Cn1nc(-c2ccc(F)cc2)c(-c2ncnc3oc(-c4ccccc4)cc23)n1 | pIC50 | 9.19 |
| O[C@H]1C[C@@H](Cn2cc(-c3ncnc4oc(-c5ccccc5)cc34)c(-c3ccc(F)cc3)n2)C1 | pIC50 | 9.47 |
| Fc1ccc(-c2nn(C3CCC(F)(F)CC3)cc2-c2ncnc3oc(-c4ccccc4)cc23)cc1 | pIC50 | 8.28 |
| Cn1cnc(-c2cc3c(-c4cn([C@H]5C[C@@H](F)C5)nc4-c4ccc(F)cc4)ncnc3o2)c1 | pIC50 | 9.87 |

GET /value?item= NC(=O)CCCn1cc(-c2ncnc3oc(-c4ccccc4)cc23)c(-c2ccc(F)cc2)n1 &field=pIC50 returns 9.59

GET /value?item= Cc1noc(-c2cc3c(-c4cn(C5CS(=O)(=O)C5)nc4-c4ccc(F)cc4)ncnc3o2)n1 &field=pIC50 returns 7.67

GET /value?item= CC(C)(C)OC(=O)N1CCC=C(c2cc3c(-c4cn(C5CS(=O)(=O)C5)nc4-c4ccc(F)cc4)ncnc3o2)C1 &field=pIC50 returns 8.38

###

biological target: recombinant human EGFR L858R/C797S double mutant protein (Homo sapiens (Human), UniProt P00533, C797S/L858R); assay: Biological Activity Assay B: biochemical assay against EGFR L858R/C797S protein (EGFR LR/CS)
Sequence (P00533 25-1210 C797S/L858R): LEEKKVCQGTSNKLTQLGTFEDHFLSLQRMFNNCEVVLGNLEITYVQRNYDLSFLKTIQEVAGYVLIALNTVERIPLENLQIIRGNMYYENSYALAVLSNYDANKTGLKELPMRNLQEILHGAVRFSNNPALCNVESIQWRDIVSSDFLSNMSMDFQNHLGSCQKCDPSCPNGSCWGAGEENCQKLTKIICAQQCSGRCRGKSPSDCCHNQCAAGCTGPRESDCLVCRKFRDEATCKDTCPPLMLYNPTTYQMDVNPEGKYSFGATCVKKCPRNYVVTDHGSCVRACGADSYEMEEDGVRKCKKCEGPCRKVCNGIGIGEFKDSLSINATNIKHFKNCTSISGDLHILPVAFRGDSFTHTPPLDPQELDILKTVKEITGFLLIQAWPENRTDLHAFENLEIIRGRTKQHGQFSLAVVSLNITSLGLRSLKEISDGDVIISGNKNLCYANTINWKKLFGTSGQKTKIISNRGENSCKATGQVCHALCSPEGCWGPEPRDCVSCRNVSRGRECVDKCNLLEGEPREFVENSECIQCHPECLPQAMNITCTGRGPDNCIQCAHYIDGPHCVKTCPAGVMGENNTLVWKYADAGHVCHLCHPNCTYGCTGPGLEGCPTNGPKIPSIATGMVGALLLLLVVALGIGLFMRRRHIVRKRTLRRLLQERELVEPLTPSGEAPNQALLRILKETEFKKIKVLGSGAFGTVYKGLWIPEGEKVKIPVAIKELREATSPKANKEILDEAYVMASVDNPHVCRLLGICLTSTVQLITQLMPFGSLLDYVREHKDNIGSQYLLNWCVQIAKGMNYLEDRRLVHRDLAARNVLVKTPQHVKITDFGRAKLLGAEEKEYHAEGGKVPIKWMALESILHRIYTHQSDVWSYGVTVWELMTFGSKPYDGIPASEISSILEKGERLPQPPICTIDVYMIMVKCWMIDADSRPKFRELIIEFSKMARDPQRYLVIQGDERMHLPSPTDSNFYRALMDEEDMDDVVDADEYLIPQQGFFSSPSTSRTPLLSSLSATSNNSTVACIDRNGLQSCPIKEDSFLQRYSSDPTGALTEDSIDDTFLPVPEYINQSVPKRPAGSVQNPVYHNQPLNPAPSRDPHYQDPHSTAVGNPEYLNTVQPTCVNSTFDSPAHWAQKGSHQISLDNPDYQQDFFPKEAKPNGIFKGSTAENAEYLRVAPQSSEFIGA
Quantity Name: pIC50
Units for pIC50: none; it is -log10 of a concentration expressed in mol/L.

| Compound | Reported Measurement |
| --- | --- |
| CS(=O)(=O)N1CC(n2cc(-c3ncnc4oc(-c5ccccc5)cc34)c(-c3ccc(F)cc3)n2)C1 | 8.79 |
| CS(=O)(=O)Cn1cc(-c2ncnc3oc(-c4ccccc4)cc23)c(-c2ccc(F)cc2)n1 | 8.58 |
| Fc1ccc(-c2nn(C3COC3)cc2-c2ncnc3oc(-c4ccccc4)nc23)cc1 | 8.20 |
| OCCCc1nc(-c2ccc(F)cc2)c(-c2ccnc3[nH]c(-c4ccccc4)cc23)s1 | 8.96 |
| CC1(Cn2cc(-c3ncnc4oc(-c5ccccc5)cc34)c(-c3ccc(F)cc3)n2)COC1 | 8.90 |

GET /value?item= OCCn1cc(-c2ncnc3oc(-c4ccccc4)cc23)c(-c2ccc(F)cc2)n1 &field=pIC50 returns 9.77

GET /value?item= O=S1(=O)CCCC(n2cc(-c3ncnc4oc(-c5ccccc5)cc34)c(-c3ccc(F)cc3)n2)C1 (centres unmarked) &field=pIC50 returns 8.21

GET /value?item= N#CCn1cc(-c2ncnc3oc(-c4ccccc4)cc23)c(-c2ccc(F)cc2)n1 &field=pIC50 returns 8.77
